The following compounds are listed with their measured pIC50 values.
- System: PC-3
- Assay overview: Cytotoxicity against human PC3 cells assessed as reduction in cell viability after 72 hrs by MTT assay
- Type: functional, cell-based
- Conditions used: PC-3, 72 h
pIC50: −log10 of the molar value.
Experimental readout: pIC50

Smiles	Experimental readout	Comparison sign	Number
COC(=O)[C@]1(C)CCC[C@]2(C)c3ccc(C(C)C)c(NC(=O)Cn4cc(-c5ccncc5)nn4)c3CC[C@@H]12	pIC50	<	4.00
COC(=O)[C@]1(C)CCC[C@]2(C)c3ccc(C(C)C)c(NC(=O)Cn4cc(-c5ccc(-c6ccccc6)cc5)nn4)c3CC[C@@H]12	pIC50	=	4.95
COC(=O)[C@]1(C)CCC[C@]2(C)c3ccc(C(C)C)c(NC(=O)Cn4cc(Cc5ccccc5)nn4)c3CC[C@@H]12	pIC50	<	4.00
COC(=O)[C@]1(C)CCC[C@]2(C)c3ccc(C(C)C)c(NC(=O)Cn4cc(-c5ccc(OC(F)(F)F)cc5)nn4)c3CC[C@@H]12	pIC50	=	4.92

###

- Assay overview: Metabolic stability in dog liver microsomes assessed as parent compound remaining after 60 mins in presence of NADPH by HPLC analysis
- Type: ADME, Canis lupus familiaris, microsome
- Conditions used: read-out: Stability

Smiles	remaining at 1 h / %
COC(=O)[C@]1(C)CCC[C@]2(C)c3ccc(C(C)C)c(NC(=O)Cn4cc(-c5cccc(NC(=O)OC(C)(C)C)c5)nn4)c3CC[C@@H]12	59

###

- Assay overview: Metabolic stability in mouse liver microsomes assessed as parent compound remaining after 60 mins in presence of NADPH by HPLC analysis
- Assay type: ADME, microsome
- Conditions used: read-out: Stability

Smiles	remaining at 1 h
COC(=O)[C@]1(C)CCC[C@]2(C)c3ccc(C(C)C)c(NC(=O)Cn4cc(-c5cccc(NC(=O)OC(C)(C)C)c5)nn4)c3CC[C@@H]12	72.6%

###

- Assay overview: Metabolic stability in rat liver microsomes assessed as parent compound remaining after 30 mins in presence of NADPH by HPLC analysis
- Format: ADME, microsome
- Conditions used: read-out: Stability
Experimental readout: remaining at 0.5 h

Smiles	Experimental readout	Result
COC(=O)[C@]1(C)CCC[C@]2(C)c3ccc(C(C)C)c(NC(=O)Cn4cc(-c5cccc(NC(=O)OC(C)(C)C)c5)nn4)c3CC[C@@H]12	remaining at 0.5 h	85.4%

###

Form field: pIC50 (one value per entry).
- Test system: PC-3
- Assay overview: Cytotoxicity against human PC3 cells assessed as reduction in cell viability after 72 hrs by MTT assay
- Format: functional, cell-based
- Conditions used: PC-3, 72 h
pIC50: −log10 of the molar value.
Experimental readout: pIC50

Smiles	Comparison sign	Number
COC(=O)[C@]1(C)CCC[C@]2(C)c3ccc(C(C)C)c(NC(=O)Cn4cc(-c5cccc(NC(C)=O)c5)nn4)c3CC[C@@H]12	=	5.00
COC(=O)[C@]1(C)CCC[C@]2(C)c3ccc(C(C)C)c(NC(=O)Cn4cc(-c5ccccc5)nn4)c3CC[C@@H]12	=	5.47
COC(=O)[C@]1(C)CCC[C@]2(C)c3ccc(C(C)C)c(NC(=O)Cn4cc(-c5ccccn5)nn4)c3CC[C@@H]12	<	4.00
COC(=O)[C@]1(C)CCC[C@]2(C)c3ccc(C(C)C)c(NC(=O)Cn4cc(-c5ccc(F)cc5)nn4)c3CC[C@@H]12	=	5.59
COC(=O)[C@]1(C)CCC[C@]2(C)c3ccc(C(C)C)c(NC(=O)Cn4cc(-c5ccccc5OC)nn4)c3CC[C@@H]12	=	5.64
COC(=O)[C@]1(C)CCC[C@]2(C)c3ccc(C(C)C)c(NC(=O)Cn4cc(-c5cccc(OC)c5)nn4)c3CC[C@@H]12	=	5.96
COC(=O)[C@]1(C)CCC[C@]2(C)c3ccc(C(C)C)c(NC(=O)CCl)c3CC[C@@H]12	=	4.15

###

- Assay overview: Octanol-water partition coefficient, log P of the compound
- Assay type: physicochemical

Smiles	logP
COC(=O)[C@]1(C)CCC[C@]2(C)c3ccc(C(C)C)c(NC(=O)Cn4cc(-c5cccc(F)c5)nn4)c3CC[C@@H]12	5.34
COC(=O)[C@]1(C)CCC[C@]2(C)c3ccc(C(C)C)c(NC(=O)Cn4cc(-c5ccccn5)nn4)c3CC[C@@H]12	4.05
COC(=O)[C@]1(C)CCC[C@]2(C)c3ccc(C(C)C)c(NC(=O)Cn4cc(-c5cccnc5)nn4)c3CC[C@@H]12	4.13
COC(=O)[C@]1(C)CCC[C@]2(C)c3ccc(C(C)C)c(NC(=O)Cn4cc(-c5ccccc5OC)nn4)c3CC[C@@H]12	5.21
COC(=O)[C@]1(C)CCC[C@]2(C)c3ccc(C(C)C)c(NC(=O)Cn4cc(-c5ccncc5)nn4)c3CC[C@@H]12	3.91
COC(=O)[C@]1(C)CCC[C@]2(C)c3ccc(C(C)C)c(NC(=O)Cn4cc(-c5ccc6ccccc6c5)nn4)c3CC[C@@H]12	6.38
COC(=O)[C@]1(C)CCC[C@]2(C)c3ccc(C(C)C)c(NC(=O)Cn4cc([Si](C)(C)C)nn4)c3CC[C@@H]12	6.04
COC(=O)[C@]1(C)CCC[C@]2(C)c3ccc(C(C)C)c(NC(=O)Cn4cc(-c5cccc([N+](=O)[O-])c5)nn4)c3CC[C@@H]12	5.13
COC(=O)[C@]1(C)CCC[C@]2(C)c3ccc(C(C)C)c(NC(=O)Cn4cc(-c5ccc(-c6ccccc6)cc5)nn4)c3CC[C@@H]12	6.99
COC(=O)[C@]1(C)CCC[C@]2(C)c3ccc(C(C)C)c(NC(=O)Cn4cc(-c5ccccc5F)nn4)c3CC[C@@H]12	5.36
COC(=O)[C@]1(C)CCC[C@]2(C)c3ccc(C(C)C)c(NC(=O)Cn4cc(-c5cccc(NC(C)=O)c5)nn4)c3CC[C@@H]12	4.39
COC(=O)[C@]1(C)CCC[C@]2(C)c3ccc(C(C)C)c(NC(=O)Cn4cc(-c5ccccc5)nn4)c3CC[C@@H]12	5.2
COC(=O)[C@]1(C)CCC[C@]2(C)c3ccc(C(C)C)c(NC(=O)Cn4cc(Cc5ccccc5)nn4)c3CC[C@@H]12	5.72
CCOC(=O)c1cn(CC(=O)Nc2c(C(C)C)ccc3c2CC[C@H]2[C@](C)(C(=O)OC)CCC[C@]32C)nn1	3.97

###

Recorded IC50 by entry
- Tested on: MCF7
- Assay overview: cells
- Conditions used: Homo sapiens, MCF7, 72 h
- Description: Cytotoxicity against human MCF7 cells assessed as reduction in cell viability after 72 hrs by MTT assay

Compound	IC50, µM
COC(=O)[C@]1(C)CCC[C@]2(C)c3ccc(C(C)C)c(NC(=O)Cn4cc(-c5cccc(F)c5)nn4)c3CC[C@@H]12	68.8
COC(=O)[C@]1(C)CCC[C@]2(C)c3ccc(C(C)C)c(NC(=O)Cn4cc(-c5ccccc5OC)nn4)c3CC[C@@H]12	1
O=c1[nH]cc(F)c(=O)[nH]1 [FLUOROURACIL]	5.2
COC(=O)[C@]1(C)CCC[C@]2(C)c3ccc(C(C)C)c(NC(=O)Cn4cc(-c5ccc6ccccc6c5)nn4)c3CC[C@@H]12	12.1
COC(=O)[C@]1(C)CCC[C@]2(C)c3ccc(C(C)C)c(NC(=O)Cn4cc(-c5ccc(OC(F)(F)F)cc5)nn4)c3CC[C@@H]12	9.2
COC(=O)c1nnn(CC(=O)Nc2c(C(C)C)ccc3c2CC[C@H]2[C@](C)(C(=O)OC)CCC[C@]32C)c1C(=O)OC	15.6

###

- Assay overview: Selectivity index, ratio of IC50 for HFF cells to IC50 for human U251 cells
- Type: toxicity
- Conditions used: HFF cells versus U251 cells, read-out: Ratio IC50
Experimental readout: selectivity ratio

Smiles	Experimental readout	Result
COC(=O)[C@]1(C)CCC[C@]2(C)c3ccc(C(C)C)c(NC(=O)Cn4cc(-c5cccc(NC(=O)OC(C)(C)C)c5)nn4)c3CC[C@@H]12	selectivity ratio	3.1

###

Measured IC50, listed per entry.
- Test system: MCF7
- Assay overview: cells
- Conditions used: Homo sapiens, MCF7, 72 h

Compound	Unit info	Comparison sign	IC50
COC(=O)[C@]1(C)CCC[C@]2(C)c3ccc(C(C)C)c(N)c3CC[C@@H]12	nM	=	31100
COC(=O)[C@]1(C)CCC[C@]2(C)c3ccc(C(C)C)c(NC(=O)Cn4cc(CNc5nc(Cl)nc(Cl)n5)nn4)c3CC[C@@H]12	nM	>	100000
COC(=O)[C@]1(C)CCC[C@]2(C)c3ccc(C(C)C)c(NC(=O)Cn4cc(-c5cccc(OC)c5)nn4)c3CC[C@@H]12	nM	=	800
CC(C)[C@]12O[C@H]1[C@@H]1O[C@@]13[C@@]1(C)CCC4=C(COC4=O)[C@@H]1C[C@@H]1O[C@@]13C2=O [TRIPTONIDE]	nM	=	30

###

- Assay overview: Metabolic stability in rat liver microsomes assessed as parent compound remaining after 90 mins in presence of NADPH by HPLC analysis
- Format: ADME, microsome
- Conditions used: read-out: Stability
Experimental readout: remaining at 1.5 h

Smiles	Experimental readout	Result
COC(=O)[C@]1(C)CCC[C@]2(C)c3ccc(C(C)C)c(NC(=O)Cn4cc(-c5cccc(NC(=O)OC(C)(C)C)c5)nn4)c3CC[C@@H]12	remaining at 1.5 h	70.5%
